# System: engineered CYP199A4 peroxygenase variants
# protocol.description: O-demethylation by the library of engineered CYP199A4 peroxygenase variants
# Format: biochemical, Rhodopseudomonas palustris
# condition.label: H2O2-dependent reaction
measurement.kind: O-demethylation / conversion by the examined CYP199A4 variants (in words)

• COc1ccc(OC)c(C(=O)O)c1 = not converted
• COc1cccc(C(=O)O)c1OC = not converted

====

# System: engineered CYP199A4 peroxygenase variants
# protocol.description: O-demethylation by the library of engineered CYP199A4 peroxygenase variants
# Assay type: biochemical, Rhodopseudomonas palustris
# condition.label: H2O2-dependent reaction
measurement.kind: O-demethylation / conversion by the examined CYP199A4 variants (in words)

• COc1cc(C(=O)O)cc(OC)c1OC = no conversions detected
• COc1c(Cl)cc(C(=O)O)cc1Cl = no conversions detected

Every entry's value here was drawn from paper PMC11134341.
